Entry source: ChEMBL document CHEMBL1201861

# Test system: MZ7-mel;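 also: growth inhibition of human MZ7-mel cells, measured by a cell viability assay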
# Assay procedure: cells
# Assay type: functional, cell-based, Homo sapiens
# Particulars: Homo sapiens, MZ7-mel
# Description: SANGER: Inhibition of human MZ7-mel cell growth in a cell viability assay.
pIC50: −log10 of the molar value.
Reported pIC50 values follow for various molecules

Return pIC50 measured with MZ7-mel given this molecule: Cn1cc(C2=C(c3ccc(Cl)cc3Cl)C(=O)NC2=O)c2ccccc21 [SB-216763] < 5.00

Continuing:
Form field - read-out: pIC50; system: MZ7-mel; submitted item: CC1=C2C[C@H]3[C@@H](CC=C4C[C@@H](O)CC[C@@]43C)[C@@H]2CC[C@]12O[C@@H]1C[C@H](C)CN[C@H]1[C@H]2C [CYCLOPAMINE] < 4.80

Lookup CN(c1ncccc1CNc1nc(Nc2ccc3c(c2)CC(=O)N3)ncc1C(F)(F)F)S(C)(=O)=O [PF-00562271] < 5.59

Similarly, COc1cc([C@@H]2c3cc4c(cc3[C@@H](O[C@@H]3O[C@@H]5CO[C@@H](C)O[C@H]5[C@H](O)[C@H]3O)[C@H]3COC(=O)[C@H]23)OCO4)cc(OC)c1O [ETOPOSIDE] ? 5.37

Now the same for Cc1ccc(Nc2nccc(N(C)c3ccc4c(C)n(C)nc4c3)n2)cc1S(N)(=O)=O [PAZOPANIB] < 5.10

Proceed to C=CCNC1=C2C[C@@H](C)C[C@H](OC)[C@H](O)[C@@H](C)/C=C(\C)[C@H](OC(N)=O)[C@@H](OC)/C=C\C=C(/C)C(=O)NC(=CC1=O)C2=O [TANESPIMYCIN] 6.75

Next up: C[C@]1(O)C[C@@H](c2nc(-c3ccc4ccc(-c5ccccc5)nc4c3)c3c(N)nccn32)C1 [LINSITINIB] < 5.59
